Experiment: J3T Cancer Cell Toxicity qHTS against the NCATS CANVASS Library (AID 1347371); also: potency is read from the fitted curve at half-maximal effect
Details: J3T dog glioma viability, ATP luminescence, 72 h; series mostly up to 46.1 µM
Inconclusive results are not listed. The source made the active and inactive calls. Calls follow the shape of the dose curve; as a rule, active = well fitted cell-killing curve with a large enough effect; inconclusive = small, poorly fitted or top-dose-only effect; inactive = flat fitted curve, though single readings scatter. Numbered stars: 1 amine (or outer) side, 2 acyl side, 3 side chain; on linkers, the order of the positions; unused ones are H or OH. Square brackets hold non-standard residues; d marks the D form. Peptide text beside a SMILES is read from it. ξ: configuration not given here. X4 = O=C(C1CC2(c3ccc(O)cc3)c3ccccc3NC2N1[*:1])[*:2]; ξW = NC(Cc1c[nH]c2ccccc12)C(=O)O; ξY = NC(Cc1ccc(O)cc1)C(=O)O
QUANTITY NAME: Potency

Sample records with Potency:
CO[C@@H]1[C@H](O)[C@@H](C)O[C@@H](OC[C@@H]2C(C)OC(=O)/C=C/[C@H](C)C(O[C@@H]3O[C@H](C)CC4(OC(=O)O[C@@H]4C)C3O)[C@@H](C)CC(C)C(=O)CC[C@H]3OC23)[C@@H]1OC (stereo partly specified) = inactive
C=C(C)C(=O)O[C@H]1C[C@H](C)[C@@H](OC(C)=O)CC[C@@]2(C)O[C@@H]2[C@H]2OC(=O)C(COC(C)=O)=C12 = 6.62 µM (active)
CN1CC[C@]2(c3cccc4c3N[C@@H]3N(C)CC[C@]43[C@@]34CCN(C)[C@@H]3Nc3ccccc34)c3ccccc3N[C@H]12 = 7.43 µM (active)
CC[C@H](C)[C@H](NC(=O)C(Cc1ccc(O)cc1)NC(=O)C(Cc1c[nH]c2ccccc12)NC(=O)[C@H](C)N)C(=O)N1C(C(=O)NC(Cc2ccc(O)cc2)C(=O)O)CC2(c3ccc(O)cc3)c3ccccc3NC12 (stereo partly specified) (H-A[ξW][ξY]I[X4][ξY]-OH) = inactive
O=C1c2c(O)cc(O)cc2O[C@@H](c2ccc(O)cc2)[C@@H]1c1c(O)cc(O)c2c(=O)cc(-c3ccc(O)c(O)c3)oc12 = inactive

Q: Given the compound COc1cc(O)c2c3c(c(O)cc(C)c13)C(=O)OC2 , what is its reported Potency?
Ans: inactive

Q: Given the compound O=Cc1ccc2n1C[C@@]1(C[C@H](O)[C@@H](CO)O1)OC2 , what is its reported Potency?
Ans: inactive

Q: Given the compound O=C(O)CC1OCc2c(O)cccc21 (stereo unspecified) , what is its reported Potency?
Ans: inactive

Q: Given the compound C[C@@H]1O[C@H](c2c(O)cc(O)c3c(=O)cc(-c4ccc(O)cc4)oc23)[C@H](O)[C@H](O)[C@H]1O , what is its reported Potency?
Ans: inactive

Q: Given the compound C[C@@H](CCC[C@]1(C)C(=O)C=C[C@]23C[C@H]4C[C@H](O[C@@]4(C)C2)C31)C(=O)N[C@@H](CO)C(=O)O (stereo partly specified) , what is its reported Potency?
Ans: inactive
